// Chromogenic (IC50 in nM) human lookup, one value per entry
Molecular target: active human PAI-1, recombinant, wild-type, non-glycosylated (E. coli) (human, UniProt P05121 24-402)
Sequence (P05121 24-402): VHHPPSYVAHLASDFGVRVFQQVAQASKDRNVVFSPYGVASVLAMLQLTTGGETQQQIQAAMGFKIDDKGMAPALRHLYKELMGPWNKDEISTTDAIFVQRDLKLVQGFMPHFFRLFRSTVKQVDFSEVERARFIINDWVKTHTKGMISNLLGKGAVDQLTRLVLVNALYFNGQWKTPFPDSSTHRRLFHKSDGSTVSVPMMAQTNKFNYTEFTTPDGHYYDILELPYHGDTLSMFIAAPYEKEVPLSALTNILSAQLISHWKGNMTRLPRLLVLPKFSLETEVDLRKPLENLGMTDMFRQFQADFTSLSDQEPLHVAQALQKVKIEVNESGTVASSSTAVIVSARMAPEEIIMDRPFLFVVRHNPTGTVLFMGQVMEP
Test: cell-based or functional assay
Provide the reading as a plain figure in nM.

Recorded Chromogenic (IC50 in nM) human, per entry:
Antibody 15 scFv (scFv) QVQLQQSGAEVKKPGSSVKVSCKASGGTFSSYAISWVRQAPGQGLEWMGGIIPTFGTANYAQKFQGRVTITADESTSTAYMELSGLRSEDTAVYYCAREKRQWLEGHFDYWGRGTPVTVSSDIQMAQSPSFLSASIGDRVTITCRASEGIYHNLAWYQQKPGKAPKLLIYRASSLASGAPSRFSGSGSGTDFTLTISSLQPDDFATYYCQQYSNYPLTFGGGTKLEIR; 7.2
Antibody 12 scFv (scFv) QVQLQQSGAEVKKPGSSVKVSCKASGGTFSSYAISWVRQAPGQGLEWMGGIIPTFPTANYAQKFQGRVTITADESTSTAYMELSGLRSEDTAVYYCAREKRQWLEGHFDYWGRGTPVTVSSDIQMTQSPSFLSASIGDRVTITCRASEGIYHNLAWYQQKPGKAPKLLIYRASSLASGAPSRFSGSGSGTDFTLTISSLQPDDFATYYCQQYSNYPLTFGGGTKLEIK; 2.3
Antibody 22 scFv (scFv) QVQLQQSGAEVKKPGSSVKVSCKASGGTFSGYAISWVRQAPGQGLEWMGGIIPTFGTANYSQKFQGRVTITADESTSTAYMELSGLRSEDTAVYYCAREKRQWLEGHFDYWGRGTPVTVSSDIQMTQSLSFLSASIGDRVTITCRASEGIYHALAWYQQKPGKAPKLLIYRASSLASGAPSRFSGSGSGTDFTLTISSLQPDDFATYYCQQYSNYPLTFGGGTKLEIK; 5
Antibody 07 scFv (scFv) QVQLQQSGAEVKKPGSSVKVSCKASGGTFSSYAISWVRQAPGQGLEWVGGIIPTFGTANYAQKFQGRVTITADESTSTAYMELSGLRSEDTAVYYCAREKRQWLEGHFDYWGRGTPVTVSSDIQMAQSPSFLSASIGDRVTITCRASEGIYHELAWYQQKPGKAPKLLIYRASSLASGAPSRFSGSGSGTDFTLTISSLQPDDFATYYCQQYSNYPLTFGGGTKLEIK; 187

Moving on to the next binder.
Challenge: Report measured Chromogenic (IC50 in nM) human; entry is Antibody 24 scFv (scFv) QVQLQQSGAEVKKPGSSVKVSCKASGGTFSSYAISWVRQAPGQGLEWMGGIIPTFVTANYAQKFQGRVSITADESTSTAYMELSGLRSEDTAVYYCAREKRQWLEGHFDYWGRGTPVTVSSDIQMTQSPSFLSASIGDRVTITCRASEGIYHALAWYQQKPGKAPKLLIYRASSLASGAPSRFSGSGSGTDFTLTISSLQPDDFATYYCQQYSNYPLTFGGGTKLEIK
Response given: 3.2
